- Test system: VIOTR
- assay explanation: Post-emergence herbicidal action against VIOTR
- Type: in vivo, Viola tricolor
- measurement parameters: 20 g/ha
Catalogue of Post-emergence action against VIOTR in % readings, one per entry.
assay metric: Post-emergence action against VIOTR in % (%)

CCn1nnnc1NC(=O)c1ccc(I)c(C(=O)NC)c1Cl
100
CSc1c(C(=O)Nc2nnnn2C)ccc(C(F)F)c1C(=O)NCC1CC1
100
CCNC(=O)c1c(Br)ccc(C(=O)Nc2nnc(C)o2)c1Cl
80
CSc1c(C(=O)Nc2nnnn2C)ccc(C(F)(F)F)c1C(=O)NC(C)C1CC1 (stereo not drawn)
100
CCn1nnnc1NC(=O)c1ccc(Br)c(C(=O)NCC2CC2)c1Cl
100
CSc1c(C(=O)Nc2nnnn2C)ccc(C(F)F)c1C(=O)NCC(F)F
100
CCn1nnnc1NC(=O)c1ccc(C(F)(F)F)c(C(=O)NCC(F)F)c1C1CC1
90
CCc1c(C(=O)Nc2nnnn2C)ccc(C(F)(F)F)c1C(=O)NCC1CC1
80
CCn1nnnc1NC(=O)c1ccc(Br)c(C(=O)NCCOC)c1Cl
80

###

- Tested on: ABUTH
- assay explanation: Post-emergence herbicidal action against ABUTH
- Type: in vivo, Abutilon theophrasti
- measurement parameters: Abutilon theophrasti, 504 h, dosage 20 g/ha, visual assessment about 3 weeks after treatment vs untreated controls
assay metric: pest or weed control at 20 g/ha (%)

CCn1nnnc1NC(=O)c1ccc(C(F)(F)F)c(C(=O)NC)c1Cl
100
CCc1c(C(=O)Nc2nnnn2C)ccc(C(F)F)c1C(=O)NC1CC1
90
CNC(=O)c1c(Cl)ccc(C(=O)Nc2nnnn2C)c1Br
90
CNC(=O)c1c(C(F)F)ccc(C(=O)Nc2nnnn2C)c1SC
90
CCn1nnnc1NC(=O)c1ccc(C(F)F)c(C(=O)NC)c1Cl
90
CNC(=O)c1c(C(F)(F)F)ccc(C(=O)Nc2nnnn2C)c1C
100
CCn1nnnc1NC(=O)c1ccc(Br)c(C(=O)NC2CC2)c1Cl
90
Cc1c(C(=O)Nc2nnnn2C)ccc(C(F)(F)F)c1C(=O)NC(C)C
90
CCNC(=O)c1c(C(F)(F)F)ccc(C(=O)Nc2nnc(C)o2)c1Cl
80
CNC(=O)c1c(I)ccc(C(=O)Nc2nnnn2C)c1Cl
80
CNC(=O)c1c(C(F)F)ccc(C(=O)Nc2nnnn2C)c1OC
90
CNC(=O)c1c(C(F)(F)F)ccc(C(=O)Nc2nnc(C)o2)c1SC
80
CC(C)NC(=O)c1c(C(F)F)ccc(C(=O)Nc2nnnn2C)c1Cl
90
Cn1nnnc1NC(=O)c1ccc(C(F)F)c(C(=O)NC2CC2)c1Cl
100
CCn1nnnc1NC(=O)c1ccc(C(F)F)c(C(=O)NC2CC2)c1Br
100
CCNC(=O)c1c(C(F)F)ccc(C(=O)Nc2nnnn2CC)c1CC
90
Cc1c(C(=O)Nc2nnnn2C)ccc(C(F)(F)F)c1C(=O)NC1CC1
100
CCn1nnnc1NC(=O)c1ccc(C(F)F)c(C(=O)NC(C)C)c1Cl
80
CCNC(=O)c1c(C(F)F)ccc(C(=O)Nc2nnnn2C)c1SC
90

###

Catalogue of Post-emergence action against STEME in % readings, one per entry.
- System: STEME
- assay explanation: Post-emergence herbicidal action against STEME
- Assay type: in vivo, Stellaria media
- measurement parameters: 20 g/ha
assay metric: Post-emergence action against STEME in % (%)

Cc1nnc(NC(=O)c2ccc(C(F)(F)F)c(C(=O)NC3CC3)c2Cl)o1
100
Cc1nnc(NC(=O)c2ccc(C(F)F)c(C(=O)NC3CC3)c2C)o1
80
CNC(=O)c1c(C(F)F)ccc(C(=O)Nc2nnco2)c1Cl
100
CCn1nnnc1NC(=O)c1ccc(C(F)F)c(C(=O)NC)c1C
80
CNC(=O)c1c(C(F)F)ccc(C(=O)Nc2nnco2)c1SC
90
NC(=O)c1c(C(F)(F)F)ccc(C(=O)Nc2nnco2)c1Cl
80
Cc1nnc(NC(=O)c2ccc(C(F)F)c(C(=O)NC3CC3)c2Cl)o1
90
CCCn1nnnc1NC(=O)c1ccc(C(F)(F)F)c(C(=O)NC(C)=O)c1Cl
100

###

- System: AVEFA
- assay explanation: Post-emergence herbicidal action against AVEFA
- Format: in vivo, Avena fatua
- measurement parameters: Avena fatua, 504 h, 5 g/ha, visual assessment about 3 weeks after treatment, 100% = plants have died, 0% = like control plants
Catalogue of pest or weed control at 5 g/ha readings, one per entry.
assay metric: pest or weed control at 5 g/ha (%)

CCNC(=O)c1c(C(F)(F)F)ccc(C(=O)Nc2nnnn2CC)c1Br
80
CCCNC(=O)c1c(C(F)(F)F)ccc(C(=O)Nc2nnnn2CC)c1C
90
CCn1nnnc1NC(=O)c1ccc(C(F)(F)F)c(C(=O)NC2CC2)c1C
90
CNC(=O)c1c(C(F)(F)F)ccc(C(=O)Nc2nnc(C)o2)c1Cl
100

###

Catalogue of pest or weed control at 20 g/ha readings, one per entry.
- System: ABUTH
- assay explanation: Pre-emergence herbicidal action against ABUTH
- Format: in vivo, Abutilon theophrasti
- measurement parameters: Abutilon theophrasti, 504 h, dosage 20 g/ha, scored visually after 3 weeks vs untreated controls, 100% = plants have died, 0% = like control plants, read-out: Pre-emergence action against ABUTH (herbicidal activity in percent)
assay metric: pest or weed control at 20 g/ha (%)

CCn1nnnc1NC(=O)c1ccc(C(F)(F)F)c(C(N)=O)c1Cl [Example 2-338]
90
CCc1c(C(=O)Nc2nnnn2C)ccc(C(F)(F)F)c1C(=O)NC [Example 1-271]
100
CNC(=O)c1c(C(F)(F)F)ccc(C(=O)Nc2nnnn2C)c1Cl [Example 1-129]
100
CCc1c(C(=O)Nc2nnnn2C)ccc(C(F)(F)F)c1C(=O)NC1CC1 [Example 1-273]
100
Cn1nnnc1NC(=O)c1ccc(C(F)F)c(C(=O)NC2CC2)c1Cl [Example 1-149]
100
Cn1nnnc1NC(=O)c1ccc(Br)c(C(=O)NC2CC2)c1Cl [Example 1-179]
80

###

- Test system: PHBPU
- assay explanation: Pre-emergence herbicidal action against PHBPU
- Format: in vivo, Pharbitis purpurea
- measurement parameters: dosage 80 g/ha
Catalogue of Pre-emergence action against PHBPU in % readings, one per entry.
assay metric: Pre-emergence action against PHBPU in %

CCc1c(C(=O)Nc2nnnn2CC)ccc(C(F)(F)F)c1C(=O)NC(C)C1CC1 (centres unmarked)
80%
CCc1c(C(=O)Nc2nnnn2CC)ccc(C(F)(F)F)c1C(=O)NC1CC1
90%
CCn1nnnc1NC(=O)c1ccc(C(F)F)c(C(=O)NCC2CCCO2)c1Cl (centres unmarked)
90%
CC(NC(=O)c1c(C(F)(F)F)ccc(C(=O)Nc2nnnn2C)c1Cl)C1CC1 (centres unmarked)
80%
Cc1nnc(NC(=O)c2ccc(C(F)F)c(C(=O)NC(C)C3CC3)c2C)o1 (centres unmarked)
90%
CCn1nnnc1NC(=O)c1ccc(Br)c(C(=O)NCC(F)F)c1Cl
90%
CCc1c(C(=O)Nc2nnnn2C)ccc(C(F)(F)F)c1C(=O)NC(C)C1CC1 (centres unmarked)
80%
Cn1nnnc1NC(=O)c1ccc(Br)c(C(=O)NCC(F)F)c1Cl
90%

###

- Test system: ECHCG
- assay explanation: Post-emergence herbicidal action against ECHCG
- Format: in vivo, Echinochloa crus-galli
- measurement parameters: dosage 5 g/ha
Catalogue of Post-emergence action against ECHCG in % readings, one per entry.
assay metric: Post-emergence action against ECHCG in % (%)

Cc1nnc(NC(=O)c2ccc(C(F)F)c(C(=O)NC(C)C)c2Cl)o1 [Example 6-260]
90
CCn1nnnc1NC(=O)c1ccc(C(F)(F)F)c(C(=O)NCC2CC2)c1SC [Example 2-84]
100
CCn1nnnc1NC(=O)c1ccc(C(F)(F)F)c(C(=O)NCC(F)F)c1C1CC1 [Example 2-291]
80
CCNC(=O)c1c(C(F)F)ccc(C(=O)Nc2nnnn2CC)c1C1CC1 [Example 2-305]
90
CCNC(=O)c1c(C(F)F)ccc(C(=O)Nc2nnco2)c1Cl [Example 5-123]
90
CCn1nnnc1NC(=O)c1ccc(C(F)F)c(C(=O)NC2CC2)c1C1CC1 [Example 2-306]
90
CCNC(=O)c1c(C(F)F)ccc(C(=O)Nc2nnnn2CC)c1SC [Example 2-88]
80
CCn1nnnc1NC(=O)c1ccc(C(F)F)c(C(=O)NC2CC2)c1OC [Example 2-74]
80
CSc1c(C(=O)Nc2nnnn2C)ccc(C(F)(F)F)c1C(=O)NCC(F)F [Example 1-86]
80
Cc1c(C(=O)Nc2nnnn2C)ccc(C(F)(F)F)c1C(=O)NC(C)C1CC1 (stereo not shown) [Example 1-31]
80

###

- Test system: ECHCG
- assay explanation: Post-emergence herbicidal action against ECHCG
- Format: in vivo, Echinochloa crus-galli
- measurement parameters: dosage 5 g/ha
Catalogue of Post-emergence action against ECHCG in % readings, one per entry.
assay metric: Post-emergence action against ECHCG in % (%)

CCn1nnnc1NC(=O)c1ccc(C(F)F)c(C(=O)NC(C)C2CC2)c1SC (centres unmarked) [Example 2-351]
100
CCn1nnnc1NC(=O)c1ccc(C(F)(F)F)c(C(=O)NCCOC)c1Cl [Example 2-138]
80
CCNC(=O)c1c(C(F)(F)F)ccc(C(=O)Nc2nnco2)c1SC [Example 5-59]
80
Cc1c(C(=O)Nc2nnnn2C)ccc(C(F)F)c1C(=O)NCC(F)F [Example 1-49]
80
CCc1c(C(=O)Nc2nnnn2CC)ccc(C(F)(F)F)c1C(=O)NC1CC1 [Example 2-273]
80
CCn1nnnc1NC(=O)c1ccc(C(F)(F)F)c(C(=O)NCC2CC2)c1C1CC1 [Example 2-289]
80
CSc1c(C(=O)Nc2nnnn2C)ccc(C(F)F)c1C(=O)NC(C)C1CC1 (centres unmarked) [Example 1-353]
100
CCNC(=O)c1c(C(F)(F)F)ccc(C(=O)Nc2nnc(C)o2)c1Br [Example 6-159]
80
